Measured values drawn from patent US20230257479A1 for this set.

# target_or_system: T1, human 5T4ECDHis (mature protein of SEQ ID NO: 99) (human, UniProt Q13641 32-355)
# T1 construct: ECD of human 5T4 (aa 1-355 of Uniprot Q13641) with C-terminal His tag; residues 1-31 are the signal peptide; also called ECD of human 5T4 with a C-terminal His tag
# T1 sequence: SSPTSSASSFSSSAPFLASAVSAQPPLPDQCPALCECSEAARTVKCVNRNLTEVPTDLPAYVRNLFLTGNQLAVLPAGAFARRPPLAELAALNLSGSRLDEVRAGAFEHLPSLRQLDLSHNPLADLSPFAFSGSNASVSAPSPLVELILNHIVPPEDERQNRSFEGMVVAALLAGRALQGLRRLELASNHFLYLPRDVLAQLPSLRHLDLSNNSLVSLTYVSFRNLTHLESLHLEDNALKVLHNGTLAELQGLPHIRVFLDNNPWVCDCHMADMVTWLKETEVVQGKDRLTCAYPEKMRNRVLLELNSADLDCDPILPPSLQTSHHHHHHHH
# assay_comment: BLI cross-block; competitor (immobilised): IgG1-5T4-H8-FEAR
property: corrected association response (nm)
# output: bare number, implied unit nm

Input line: Value lookup for corrected association response; key = IgG1-5T4-127-FEAR (antibody, V domains shown, Monospecific, bivalent human IgG1 kappa with L234F, L235E, D265A, K409R (FEAR)) VH: EVQLLESRGGLVQPGGSLRLSCAASGFTFSSYAMSWVRQAPGKGLEWVSTISGSGGSTYYADSVKGRFTISRDNSKKTLYLQMNSLRAEDTAVYYCAKDWGSGSYPAEYFQHWGQGTLVTVSS VL: EIVLTQSPATLSLSPGERATLSCRASQSVSSYLAWYQQKPGQAPRLLIYDASNRATGIPARFSGSGSGTDFTLTISSLEPEDFAVYYCQQRSNWLMYTFGQGTKLEIK
Output line: -0.01

Input line: Value lookup for corrected association response; key = IgG1-5T4-226-FEAR (antibody, V domains shown, Monospecific, bivalent human IgG1 kappa with L234F, L235E, D265A, K409R (FEAR); also called IgG1-5T4-226-FEAR-FITC) VH: QVQLQQWGAGLLKPSETLSLTCAVYGGSFSGYYWSWIRQPPGKGLEWIGEIDHSGSTNYNPSLKSRVTISVDTSKNQFSLKLSSVTAADTAVYYCAAWFGELWDYYYGMDVWGQGTTVTVSS VL: EIVLTQSPATLSLSPGERATLSCRASQSVSSFLAWYQQKPGQAPRLLIYDASNRATGIPARFSGSGSGTDFTLTISSLEPEDFAVYYCQQRSNWPLTFGQGTRLEIK
Output line: -0.01

Input line: Value lookup for corrected association response; key = IgG1-5T4-H8-FEAR (antibody, V domains shown, Based on 5T4 antibody H8 from Wyeth (WO 2007/106744); IgG1 with L234F, L235E, D265A, K409R (FEAR); also called IgG1-5T4-HS-FEAR; IgG1-5T4-H8-FEAR-FITC) VH: EVQLQQSGPDLVKPGASVKISCKASGYSFTGYYMHWVKQSHGKSLEWIGRINPNNGVTLYNQKFKDKAILTVDKSSTTAYMELRSLTSEDSAVYYCARSTMITNYVMDYWGQVTSVTVSS VL: SIVMTQTPTFLLVSAGDRVTITCKASQSVSNDVAWYQQKPGQSPTLLISYTSSRYAGVPDRFIGSGYGTDFTFTISTLQAEDLAVYFCQQDYNSPPTFGGGTKLEIK
Output line: 0
